- System: HOP-92 NSCLC
- assay_notes: NCI tumour cell line growth inhibition, 48 h
metric_name: TGI (µM)
Answers are plain numbers, in µM.

CC(=O)NCCC1CN(C(=O)/C=C/I)c2ccccc21 (stereo not given)	4.43

# ---- query compound ----
# get_value(readout='TGI', item= `Cc1cc(NCCCN(C)C)c2ccc3c(ccc4c(NCCCN(C)C)cc(C)nc43)c2n1` )
0.298

----------
- Tested on: COLO 205 colon
- assay_notes: NCI tumour cell line growth inhibition, 48 h
metric_name: TGI

O=C1NC(Nc2ccccc2)=NC(C(F)(F)F)(C(F)(F)F)N1	> 100 µM
COc1c(O)c(C=O)c2c(O)c(-c3c(C)cc4c(C(C)C)c(OC)c(O)c(C=O)c4c3O)c(C)cc2c1C(C)C	4 µM
Cc1cc(F)ccc1S(=O)(=O)Nc1cc(-c2c(O)ccc3ccccc23)c(O)c2ccccc12	4.94 µM
C[N+](C)(C)c1ccc(C(N)C(=O)O)cc1 (centres undefined)	> 100 µM

Provide each entry's TGI from the list below.
1. COc1cc2nc(N3CCCC3)nc(NCc3ccccc3)c2cc1OC
2. O=S(=O)(c1ccc(NC2=NC(c3ccc(O)cc3)(c3ccccc3O)c3ccccc32)cc1)c1ccc(NC2=NC(c3ccc(O)cc3)(c3ccccc3O)c3ccccc32)cc1 (centres undefined)

["3.14 µM", "> 33.6 µM"]

Quick one: give me TGI for each item below, same order please.
1. NNC(=O)C1CCC(=O)N1S(=O)(=O)c1ccccc1 (centres undefined)
2. C=C/C(C)=C\CC1[C@](C)(O)CC[C@H]2C(C)(C)C(=O)CC[C@]12C (some centres undefined)

1. > 100 µM
2. > 100 µM

Given the compound `CCNC(=S)N=Nc1c(O)[nH]c2ccc([N+](=O)[O-])cc12` , what is its reported TGI?
> 100 µM
